- SYSTEM_NAME: Fuc(a1-2)Gal(b1-4)GlcNAc(b1-6)GalNAc
- ASSAY_PROCEDURE: glycan array binding signal (z-score within array); higher = stronger binding
- RECORDED_CONDITIONS: glycan notation: IUPAC condensed, linker removed
The sample as a whole holds a higher share of the strongest signals than the screen did.

{"BINDER": "MGL2 (Mus musculus), Q8JZN1 (protein) MTMRYENFQNLEREEKNQEMRNGDKKGGMESPKFALIPSQSFLWRILSWTHLLLFSLGLSLLLLVVISVIGSQNSQLRRDLGTLRAILDNTTSKIKAEFQSLDSRADNFEKGISSLKVDVEDHRQELQAGRDLSQKVTSLESTLEKREQALKTDLSDLTDHVQQLETDLKALTCQLANLKNNGSEVACCPLHWTEHEGSCYWFSESEKSWPEADKYCRLENSHLVVVNSLEEQNFLQNRLANVLSWMGLTDQNGPWRWVDGTDFDKGFKNWRPLQPDNWHGHMLGGGEDCAHFSYDGRWNDDVCQRHYHWICETELGKASSAHSPQLIASVP", "glycan array binding signal (z-score)": 1.79}
{"BINDER": "DCIR1 (Mus musculus), Q9QZ15 (protein) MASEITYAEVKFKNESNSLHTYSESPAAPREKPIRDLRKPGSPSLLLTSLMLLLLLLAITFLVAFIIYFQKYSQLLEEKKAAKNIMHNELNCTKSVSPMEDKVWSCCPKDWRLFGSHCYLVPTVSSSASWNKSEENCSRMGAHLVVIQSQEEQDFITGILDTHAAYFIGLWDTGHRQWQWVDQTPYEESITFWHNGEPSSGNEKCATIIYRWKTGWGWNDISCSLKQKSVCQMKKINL", "glycan array binding signal (z-score)": 3.97}
